Biological target: human CCR2B (Homo sapiens)
Sequence (P41597 1-360 isoform P41597-2): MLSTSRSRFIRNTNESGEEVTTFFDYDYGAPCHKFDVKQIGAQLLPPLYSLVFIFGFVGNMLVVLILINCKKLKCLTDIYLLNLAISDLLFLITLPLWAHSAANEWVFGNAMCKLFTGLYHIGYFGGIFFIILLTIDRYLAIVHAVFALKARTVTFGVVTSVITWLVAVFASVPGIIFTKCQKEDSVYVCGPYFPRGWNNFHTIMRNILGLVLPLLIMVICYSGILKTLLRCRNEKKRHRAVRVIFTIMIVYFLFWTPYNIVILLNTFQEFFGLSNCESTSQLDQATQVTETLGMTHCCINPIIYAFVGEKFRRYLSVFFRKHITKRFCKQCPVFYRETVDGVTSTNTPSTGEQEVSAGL
Assay: Calcium mobilization assay (FLIPR, MCP-1 stimulated CHOK1-CCR2B-A5 cells)
Conditions: antagonist activity vs 20 nM MCP-1, CHOK1-CCR2B-A5 cells
pIC50: −log10 of the molar value.
So basically: pIC50 at 7 or higher? That is fulfilled. Lower than 7? That is not fulfilled.

Some entries whose results are on file:
>  <mol.smiles>
Cc1cc(-c2cncc(C(F)(F)F)c2)cc(C)c1C(=O)N1CCC(N2CCC[C@H]2CO)CC1

>  <class.name>
fulfilled

$$$$
>  <mol.smiles>
Cc1cc(-c2cccc(OC(F)(F)F)c2)ccc1C(=O)N1CCC(N2CCCC2)CC1

>  <class.name>
not fulfilled

$$$$
>  <mol.smiles>
O=C(c1c(F)cc(-c2cccc(OC(F)(F)F)c2)cc1F)N1CCC(N2CCCC2)CC1

>  <class.name>
not fulfilled

$$$$
>  <mol.smiles>
Cc1cc(-c2cncc(C(F)(F)F)c2)nc(C)c1C(=O)N1CCC(N2CCC[C@H]2CO)CC1

>  <class.name>
not fulfilled

$$$$
>  <mol.smiles>
Cc1cc(-c2cccc(C(F)(F)F)c2)nc(OCCO)c1C(=O)N1CCC(N2CCCC2)CC1

>  <class.name>
fulfilled

$$$$
>  <mol.smiles>
Cc1cc(-c2cccc(C(F)(F)F)c2)nc(C)c1C(=O)N1CCC(N2CCCC2)CC1

>  <class.name>
fulfilled

$$$$

Prompt line: Assess whether reported pIC50 for `Cc1cc(-c2cccc(C(F)(F)F)c2)cc(C)c1C(=O)N1CCC(N2CCC[C@H]2CO)CC1` sits at 7 or higher.
Response line: fulfilled

Prompt line: Assess whether reported pIC50 for `Cc1cc(-c2cccc(OC(F)(F)F)c2)cc(C)c1C(=O)N1CCC(N2CCCC2)CC1` sits at 7 or higher.
Response line: fulfilled
